molecular target: aromatase (Homo sapiens); construct: 800 μl cell suspension (1 million cells); endogenous in cells; host or cells: JEG-3 human choriocarcinoma cells; experiment: Aromatase inhibiting capacity in JEG-3 cells (3H-17β-estradiol formation from 3H-androstenedione); assay type: cell-based; details: 4 h incubation, FIG. 1
Sequence (P11511 whole entry): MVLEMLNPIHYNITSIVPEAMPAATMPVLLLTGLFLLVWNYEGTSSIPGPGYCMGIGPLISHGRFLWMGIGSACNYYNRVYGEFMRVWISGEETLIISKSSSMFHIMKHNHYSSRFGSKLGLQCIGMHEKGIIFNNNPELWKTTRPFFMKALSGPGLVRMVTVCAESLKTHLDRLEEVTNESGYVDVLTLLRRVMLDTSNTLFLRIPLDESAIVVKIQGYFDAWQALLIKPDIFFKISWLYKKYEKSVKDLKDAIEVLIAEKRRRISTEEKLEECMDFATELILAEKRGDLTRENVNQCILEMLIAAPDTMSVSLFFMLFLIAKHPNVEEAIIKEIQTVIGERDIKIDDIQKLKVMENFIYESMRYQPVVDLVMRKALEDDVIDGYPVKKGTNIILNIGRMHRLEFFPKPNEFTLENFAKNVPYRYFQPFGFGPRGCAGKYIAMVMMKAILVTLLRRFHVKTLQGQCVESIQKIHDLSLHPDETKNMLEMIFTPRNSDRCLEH
Measured endpoint: Inhibition of aromatization (3H-17β-estradiol formation from 3H-androstenedione)

                                   compound                  value
0  COc1cc(CC2C(=O)OCC2C(O)c2ccc(O)c(OC)c2)ccc1O (stereo not shown) [HMR, hydroxymatairesinol]  no inhibitory effects
1  O=C1OC[C@H](Cc2cccc(O)c2)[C@H]1[C@@H](O)c1cccc(O)c1 [7-hydroxyenterolactone]  no inhibitory effects
